Items are presented alongside their recorded melting point.

{"columns": ["molecule", "melting point"],
 "data": [
  ["CSc1nc(Cl)c(-c2c(F)cc(F)cc2F)c(N2CCCC(C)O2)n1 (centres undefined)", "110 to 111 °C"],
  ["COC(=O)[C@@H]1Cc2ccccc2N1c1ccc(Cl)nn1", "133 to 134 °C"],
  ["CN(Cc1cc2c(=O)c(C(=O)NCc3ccc(Cl)cc3)cn(C)c2s1)CC(O)c1ccc(O)cc1 (centres undefined)", "134 to 143 °C"],
  ["O=Cc1cc2n(n1)CCOC2=O", "135 to 136 °C"]
]}

====

Items are presented alongside their recorded melting point.

{"columns": ["molecule", "melting point"],
 "data": [
  ["CC(C)=CCN1[C@H](C)Cn2c(=S)[nH]c3cccc(c32)[C@@H]1C (relative stereo)", "138 °C"],
  ["CCOC(=O)COc1ccc(C2=NNC(=O)NC2)cc1", "181 to 183 °C"],
  ["CCN(CC)c1ccc(N=c2scc(-c3ccc(Cl)c(S(=O)(=O)N(C)C)c3)n2C)cc1", "184 to 185 °C"],
  ["O=C1C(=O)N2CCSc3cc(Br)cc1c32", "196 °C"],
  ["CCN(CC)C(=O)n1cnc(Sc2c(C)cccc2C)n1", "111 to 112 °C"],
  ["O=c1ccn(C2OC(CO)C(O)C2Br)c(=O)[nH]1 (stereo not drawn)", "194 to 195 °C"],
  ["NC1CC(N)(C(=O)O)C2C(C(=O)O)C12 (stereo not drawn)", "> 275 °C"],
  ["CC(=O)Oc1ccc2c3c(ccc2c1)C1CC=CC1(C)CC3 (stereo not drawn)", "95 to 96 °C"]
]}
